Kindly supply the reported %Inh values for the records listed here.
# Tested on: ACVR2A
# Stated Conditions: concentration: 1 μM, replicates: in singlicate; n = 1;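 also: KINOMEscan kinase panel screen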
Numbers only, in %.

Solved cases (3 shown):
I would be grateful if you could share the reported %Inh for "CC(C)(C)n1cnc2c(N)ncnc21" .
0

I would be grateful if you could share the reported %Inh for "Cl.Cl.Cl.Fc1ccc(-c2ncn(C3CCNCC3)c2-c2ccnc(Nc3ccccc3)n2)cc1" .
0

I would be grateful if you could share the reported %Inh for "Cc1cccc(-c2nc(Nc3ccc4ncsc4c3)c3ccccc3n2)n1" .
0

Below are some molecules; for each one, tell me its %Inh.
1. O=C(NCCNc1ccnc(Nc2ccc(F)cc2)n1)c1cc2ccccc2s1
2. O=C(c1ccc(-c2cc(-c3c[nH]nc3-c3ccccn3)ccn2)cc1)N1CCOCC1

1. 0
2. 0

###

# System: EPHA5
# Stated Conditions: concentration: 1 μM, replicates: in singlicate; n = 1
Observed Property: %Inh (%)
One number for each entry, in %.

Solved cases (4 shown):
I would be grateful if you could share the reported %Inh for O=c1cc(N2CCOCC2)nc2n(Cc3cccc(Cl)c3Cl)c(C3CC3)nn12 [GSK2358994] .
6

I would be grateful if you could share the reported %Inh for COc1ccc(COc2cc(-n3cnc4ccccc43)sc2C(N)=O)cc1 [GSK1024304] .
0

I would be grateful if you could share the reported %Inh for COc1ccc(Nc2nccc(N3CCC(NC(=O)Nc4cccc(C(C)=O)c4)C3)n2)cc1 (stereo not drawn) [GSK1379731] .
0

I would be grateful if you could share the reported %Inh for Cc1cccc(Cn2ccn3c(=O)cc(N4CCOCC4)nc23)c1 [GSK2297542] .
0

Below are some compounds; for each one, tell me its %Inh.
1. O=C(Nc1n[nH]c2cc(-c3cccc(F)c3)ccc12)C1CC1 [SB-735464]
2. COc1cc2c(cc1OCCN1CCN(C)CC1)ncc1c3ccc(C#N)cc3[nH]c21

1. 0
2. 0

###

# System: TRKC
# Construct: gene NTRK3
# Stated Conditions: concentration: 1 μM, replicates: in singlicate; n = 1
Observed Property: %Inh (%)
One number for each entry, in %.

Solved cases (5 shown):
Missing value: %Inh, TRKC, entry "COc1ccc(Nc2ncc(C#N)c(Nc3ccccc3C(N)=O)n2)cc1N1CCN(C)CC1.Cl" . Fill in?
94.6

Missing value: %Inh, TRKC, entry COc1ccc(Nc2nccc(N3CCC(NC(=O)Nc4cccc(C(C)=O)c4)C3)n2)cc1 (stereo not drawn) . Fill in?
78

Missing value: %Inh, TRKC, entry "O=C(NCCNc1ccnc(Nc2ccc(F)cc2)n1)c1cc2ccccc2s1" . Fill in?
38

Missing value: %Inh, TRKC, entry "Cn1cc(-c2ccc3c(c2)CCN3C(=O)Cc2ccccc2Cl)c2c(N)ncnc21" . Fill in?
0

Missing value: %Inh, TRKC, entry Cc1c(Cn2c(C)nn3c(=O)cc(N4CCOC(C)C4)nc23)cccc1C(F)(F)F (stereo not drawn) . Fill in?
0

Below are some compounds; for each one, tell me its %Inh.
1. [2H]C([2H])(c1cccc(C(F)(F)F)c1C)n1ccn2c(=O)nc(N3CCOCC3)cc12
2. COc1ccc(S(=O)(=O)NC2CCN(c3cc(C)nc(Nc4cccc(C#N)c4)n3)CC2)cc1.O=C(O)C(F)(F)F
3. COC(=O)Nc1nc2cc(Oc3ccc(NC(=O)Nc4cc(F)ccc4F)cc3)ccc2[nH]1.Cl
4. O=C1Cc2cc(Nc3nc(NCc4cccc(S(=O)(=O)C(F)(F)F)c4)ncc3C(F)(F)F)ccc2N1
5. Cl.Oc1cccc(Nc2ccnc3cc(-c4ccncc4)ccc23)c1
6. COc1cc2c(cc1OC[C@@H](O)CO)ncc1c3ccc(C#N)cc3[nH]c21
7. CCn1cnc2c(N)ncnc21

[0, 0, 76, 10, 25, 66, 7]

Below are some compounds; for each one, tell me its %Inh.
1. NCC(NC(=O)c1cc(-c2cn[nH]c2)c(-c2ccnc3[nH]ccc23)s1)c1ccccc1.O=C(O)C(F)(F)F.O=C(O)C(F)(F)F (stereo not drawn)
2. c1ccc(-c2n[nH]cc2-c2ccnc3ccccc23)nc1
3. CC(=O)Nc1ccc(COc2ccc(Nc3ccnc4cc(-c5ccccn5)ccc34)cc2)cc1.Cl
4. Cc1ccc(C(=O)NCC(N)=O)cc1-n1c(C)cc(OCc2ccc(F)cc2F)c(Br)c1=O

57
0
25
0

###

Kindly supply the reported %Inh values for the records listed here.
# Test system: ASK1
# Construct: gene MAP3K5
# Stated Conditions: concentration: 1 μM, replicates: in singlicate; n = 1
Give bare numbers, in %.

Solved cases (6 shown):
I would be grateful if you could share the reported %Inh for "NS(=O)(=O)CCc1cccc(Nc2nccc(-c3c(-c4cccc(NC(=O)c5c(F)cccc5F)c4)nn4ccccc34)n2)c1" .
2

I would be grateful if you could share the reported %Inh for COc1cc(Nc2nccc(N3CCC(NC(=O)c4cccc(NC(C)=O)c4)C3)n2)cc(OC)c1OC (centres unmarked) .
0

I would be grateful if you could share the reported %Inh for "O=c1cc(N2CCOCC2)nc2n(Cc3cccc(Cl)c3Cl)c(C3CC3)nn12" .
0

I would be grateful if you could share the reported %Inh for "CC(C)(C)n1cnc2c(N)ncnc21" .
0

I would be grateful if you could share the reported %Inh for "N#Cc1c(N2CCOCC2)sc(-c2ccn[nH]2)c1-c1ccc(Cl)cc1" .
0

I would be grateful if you could share the reported %Inh for "COc1cc2ncn(-c3cc(OCc4sccc4Cl)c(C(N)=O)s3)c2cc1OC" .
0

Below are some compounds; for each one, tell me its %Inh.
1. CNc1ncnc2[nH]ncc12
2. N#Cc1ccc(-c2cc(-c3c[nH]nc3-c3ccccn3)ccn2)cc1
3. Cc1nnc(-c2ccc3occ(-c4ccc(C(C)O)cc4)c3c2)o1 (centres unmarked)
4. Nc1nc(-c2ccc3c(N)n[nH]c3c2)cc(N2CCCC2)n1
5. O=C(NOCC1CC1)c1ccc(F)c(F)c1Nc1ccc(I)cc1Cl

1: 0; 2: 0; 3: 0; 4: 0; 5: 0

###

# Tested on: CDK3
# Stated Conditions: concentration: 1 μM, replicates: in singlicate; n = 1
Kindly supply the reported %Inh values for the records listed here.

Solved cases (2 shown):
I would be grateful if you could share the reported %Inh for NS(=O)(=O)CCc1cccc(Nc2nccc(-c3c(-c4cccc(NC(=O)c5c(F)cccc5F)c4)nn4ccccc34)n2)c1 [GSK336735] .
21%

I would be grateful if you could share the reported %Inh for "COc1cc2c(cc1OC[C@@H](O)CO)ncc1c3ccc(C#N)cc3[nH]c21" .
19%

Below are some compounds; for each one, tell me its %Inh.
1. CNc1ncnc2[nH]ncc12 [SKF-18355]
2. Cc1nnc(-c2ccc3ncc(-c4ccc(S(C)=O)cc4)n3c2)o1 (centres unmarked)
3. N#Cc1ccc(-c2cc(-c3c[nH]nc3-c3ccccn3)ccn2)cc1 [GW693028]
4. CN(C(=O)c1ccc(-c2cc(-c3c[nH]nc3-c3ccccn3)ccn2)cc1)C1CCOCC1 [GW810083]
5. COc1ccc(COc2cc(-n3cnc4ccccc43)sc2C(N)=O)cc1 [GSK1024304]
6. O=C(NCCNc1ccnc(Nc2ccc(F)cc2)n1)c1cc2ccccc2s1 [GSK1379874]

["12%", "2%", "6%", "0%", "9%", "0%"]

Below are some compounds; for each one, tell me its %Inh.
1. Cc1nnc(-c2ccc(C)c(-c3ccc(C(=O)Nc4ccc(NS(C)(=O)=O)cc4)cc3)c2)o1 [GW702865]
2. N#Cc1c(N2CCOCC2)sc(-c2ccn[nH]2)c1-c1ccc(Cl)cc1
3. COc1ccc(Nc2ncc(C#N)c(Nc3ccccc3C(N)=O)n2)cc1N1CCN(C)CC1.Cl [GSK1558669]
4. O=c1cc(N2CCOCC2)nc2n(Cc3cccc(F)c3)ccn12 [GSK2297430]

1. 1%
2. 5%
3. 90%
4. 1%

Below are some compounds; for each one, tell me its %Inh.
1. Cn1ccc2ncnc(Oc3ccc(NC(=O)Nc4ccncc4)c(Cl)c3)c21
2. COc1ccc(Nc2nccc(N3CCC(NC(=O)Nc4cccc(C(C)=O)c4)C3)n2)cc1 (centres unmarked) [GSK1379731]

0%
0%

###

Kindly supply the reported %Inh values for the records listed here.
# System: GRK2
# Construct: gene ADRBK1
# Stated Conditions: concentration: 1 μM, replicates: in singlicate; n = 1
One number for each entry, in %.

Solved cases (2 shown):
I would be grateful if you could share the reported %Inh for "O=C(c1ccc(-c2cc(-c3c[nH]nc3-c3ccccn3)ccn2)cc1)N1CCOCC1" .
0

I would be grateful if you could share the reported %Inh for "Cc1cn2c(=O)cc(N3CCOCC3)nc2n1Cc1cccc(Cl)c1Cl" .
3

Below are some compounds; for each one, tell me its %Inh.
1. Cc1cccc(Cn2ccn3c(=O)cc(N4CCOCC4)nc23)c1
2. O=C(Nc1n[nH]c2cc(-c3cccc(F)c3)ccc12)C1CC1
3. C[C@@H](Oc1cc(-n2cnc3ccc(NC(=O)NC(C)(C)C)cc32)sc1C(N)=O)c1ccccc1Cl
4. COc1ccc(S(=O)(=O)NC2CCN(c3cc(C)nc(Nc4cccc(C#N)c4)n3)CC2)cc1.O=C(O)C(F)(F)F
5. Cc1cccc(-c2nc(Nc3ccc4ncsc4c3)c3ccccc3n2)n1

0
0
0
0
9

Below are some compounds; for each one, tell me its %Inh.
1. NS(=O)(=O)c1cccc(-c2ccc3ncc(N4CCOCC4)nc3c2)c1
2. CN(C(=O)c1ccc(-c2cc(-c3c[nH]nc3-c3ccccn3)ccn2)cc1)C1CCOCC1
3. Cc1nnc(-c2ccc3occ(-c4ccc(C(C)O)cc4)c3c2)o1 (stereo not drawn)

[0, 18, 0]

Below are some compounds; for each one, tell me its %Inh.
1. [2H]C([2H])(c1cccc(C(F)(F)F)c1C)n1ccn2c(=O)nc(N3CCOCC3)cc12
2. O=C(NCCNc1ccnc(Nc2ccc(F)cc2)n1)Nc1ccccc1F

[0, 0]

All figures here come from paper PMC5540273.
